# Tested on: Plasmodium falciparum
# procedure.summary: Antimalarial activity against chloroquine,mefloquine-sensitive Plasmodium falciparum D6
# Format: functional, organism-based
Lab note - cut at 30 nM for IC90: t if strictly below, f if not.

Worked set:
{"molecule": "Clc1ccc2c(NCCCCCNCCC34CC5CC(CC(C5)C3)C4)ccnc2c1", "assigned.label": "t"}
{"molecule": "O[C@@H](c1cc(C(F)(F)F)nc2c(C(F)(F)F)cccc12)[C@H]1CCCCN1 [MEFLOQUINE]", "assigned.label": "t"}

Say whether its IC90 is strictly beneath 30 nM. Entry: Clc1ccc2c(NCCN(CCC34CC5CC(CC(C5)C3)C4)CCC34CC5CC(CC(C5)C3)C4)ccnc2c1
f

Report whether reported IC90 is lower than 30 nM (strictly) for CCCNC(=O)CC[C@@H](C)[C@H]1CC[C@H]2[C@@H]3[C@H](OC(C)=O)C[C@@H]4C[C@H](Nc5ccnc6cc(Cl)ccc56)CC[C@]4(C)[C@H]3C[C@H](OC(C)=O)[C@]12C
f

Hi there! Is IC90 for COC(=O)CC[C@@H](C)[C@H]1CC[C@H]2[C@@H]3[C@H](OC(C)=O)C[C@@H]4C[C@H](OCCNCCNc5ccnc6cc(Cl)ccc56)CC[C@]4(C)[C@H]3C[C@H](OC(C)=O)[C@]12C below 30 nM, do you know?
t

# strict comparison: is reported IC90 < 30 nM? input = CCN(CC)CCCC(C)Nc1ccnc2cc(Cl)ccc12 (stereo not drawn) [CHLOROQUINE]
t

Please indicate whether the reported IC90 of O=C(CC12CC3CC(CC(C3)C1)C2)NCCCCCNc1ccnc2cc(Cl)ccc12 is strictly below 30 nM.
f

Say whether its IC90 is strictly beneath 30 nM. Entry: O=C(NCCNc1ccnc2cc(Cl)ccc12)C12CC3CC(CC(C3)C1)C2
f
